Where do these numbers come from? They come from patent US11597760.

molecular target: human C5 (human); assay: SPR, pH 7.4, 37C
In this section, each of the binders is paired with its reported pKd.
Entry type: numeric. Quantity: pKd, the -log10 of concentration in molar units.

// pKd lookup, key: 305LO5 (antibody, V domains shown) VH: QVQLVESGGGLVQPGGSLRLSCAASGFTSHSSYYVAWVRQAPGKGLEWVGAIYTGSGATYKASWAKGRFTISKDTSKNQVVLTMTNMDPVDTATYYCASDGGYDYPTHAMHYWGQGTLVTVSS VL: DVVMTQSPSSLSASVGDRVTITCQASQNIGSSLAWYQQKPGQAPRLLIYGASKTHSGVPSRFSGSGSGTDFTLTISSLQPEDVATYYCQSTKVGSSYGNHFGGGTKVEIK
9.33

Look up pKd: CFA0341 (antibody, V domains shown) VH: QSVEESGGRLVTPGTPLTLTCTVSGIDLSSYTMGWVRQAPGKGLECIGYIHSFGSTYYASWAKGRFTISKTSTTVDLEITSPTTEDTATYFCARDVGGSSGWDLWGQGTLVTVSS VL: DVVMTQTPSSVSAAVGGTVTIKCQASENIYSNLAWYQQKPGQPPKRLIYDASDLASGVPSRFSGSGYGTQFTLTISGVQCEDAATYYCQANYDSTSSSFGNVFGGGTEVVVK
9.81
